Every entry's value here was drawn from paper PMC4778863.

# IC50 per entry
targetOfAssay: TbGSK3β (Trypanosoma brucei brucei)
Construct: Full-length TbGSK3β (Gene DB ID Tb927.10.13780); 6X His (C); made in house; host or cells: BL21 (DE3) E. coli
assaySummary: biochemical
Format: biochemical
experimentalParameters: IC50 for inhibition TbGSK3β, non-preincubated reactions, 0 min preincubation; 10 μM GSM, 10 μM ATP; kinase 10 nM
The reply should consist of the numeric value with the unit placed after it.

O=c1sn(-c2cccc3ccccc23)c(=O)n1Cc1ccccc1 :: 173 nM

Proceeding to the next compound to report its IC50.
-- ask What does the data say about its IC50? Entry: O=C1Nc2ccc3ncsc3c2/C1=C/Nc1ccc(S(=O)(=O)Nc2ccccn2)cc1
-- reply 15.1 nM

---

targetOfAssay: TbGSK3β (Trypanosoma brucei brucei)
Construct: Full-length TbGSK3β (Gene DB ID Tb927.10.13780); 6X His (C); made in house; host or cells: BL21 (DE3) E. coli
Sequence (Q388M1 1-352): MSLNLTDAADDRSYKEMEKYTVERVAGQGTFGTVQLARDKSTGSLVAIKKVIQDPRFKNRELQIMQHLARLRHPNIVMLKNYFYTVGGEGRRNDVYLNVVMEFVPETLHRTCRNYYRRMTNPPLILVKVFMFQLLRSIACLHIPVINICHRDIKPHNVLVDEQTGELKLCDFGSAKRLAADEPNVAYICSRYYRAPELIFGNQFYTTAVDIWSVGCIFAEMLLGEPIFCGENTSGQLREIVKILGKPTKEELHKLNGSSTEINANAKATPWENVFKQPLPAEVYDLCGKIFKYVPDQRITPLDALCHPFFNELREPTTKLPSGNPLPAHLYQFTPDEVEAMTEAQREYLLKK
assaySummary: biochemical
Assay type: biochemical
experimentalParameters: % inhibition at 30 min preincubation / % inhibition at 0 min preincubation at 10 μM ATP
Description: TbGSK3β activity was measured by following the ADP formation associated with the phosphorylation of GSM peptide and detected with ADP-Glo at 23°C. […] All reactions were incubated for 5 minutes in microcentrifuge tubes, and reactions were terminated at 80°C for 4 min. […] Promega ADP-Glo procedures were carried out and phosphorylation measured by Luminoskan Ascent (Thermo Labsystems, Waltham MA). […] IC50 for inhibition TbGSK3β was determined as a function of preincubation time (Fig 3). […]
measure: Ratio Preinc/no preinc

A selection of reference data follows.
Nc1cccc(-c2cc3c(Oc4cccc(O)c4)ncnc3[nH]2)c1 :: 1
Cc1cc(Nc2cc(CN3CCOCC3)c3nc(C)c(Cc4ccc(Cl)cc4F)n3n2)n[nH]1 :: 0.83
O=c1sn(-c2cccc3ccccc23)c(=O)n1Cc1ccccc1 :: 16

-- ask What does the data say about its Ratio Preinc/no preinc? Entry: Cc1c[nH]c(-c2cnc(NCCNc3ccc(C#N)cn3)nc2-c2ccc(Cl)cc2Cl)n1
-- reply 0.97

---

# IC50 per entry
targetOfAssay: TbGSK3β (Trypanosoma brucei brucei, UniProt Q388M1)
Construct: Full-length TbGSK3β (Gene DB ID Tb927.10.13780); 6X His (C); made in house; host or cells: BL21 (DE3) E. coli
Sequence (Q388M1 1-352): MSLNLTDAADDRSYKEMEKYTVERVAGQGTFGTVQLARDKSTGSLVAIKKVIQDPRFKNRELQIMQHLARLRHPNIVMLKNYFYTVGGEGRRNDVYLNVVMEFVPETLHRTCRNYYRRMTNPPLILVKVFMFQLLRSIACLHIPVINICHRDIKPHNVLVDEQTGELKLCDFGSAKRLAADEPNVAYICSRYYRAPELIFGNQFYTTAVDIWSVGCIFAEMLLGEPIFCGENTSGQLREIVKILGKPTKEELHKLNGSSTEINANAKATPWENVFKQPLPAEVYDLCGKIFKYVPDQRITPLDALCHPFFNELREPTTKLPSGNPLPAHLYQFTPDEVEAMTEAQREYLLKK
assaySummary: biochemical
Assay type: biochemical
experimentalParameters: IC50 for inhibition TbGSK3β, preincubated reactions, 30 min preincubation with inhibitor, TbGSK3β, GSM; 10 μM GSM, 10 μM ATP; kinase 10 nM
Express it in µM; write the number only.

O=c1sn(-c2cccc3ccccc23)c(=O)n1Cc1ccccc1 :: 0.043

-- ask What does the data say about its IC50? Entry: O=C1Nc2ccc3ncsc3c2/C1=C/Nc1ccc(S(=O)(=O)Nc2ccccn2)cc1
-- reply 0.0145

---

targetOfAssay: TbGSK3β (Trypanosoma brucei brucei)
Construct: Full-length TbGSK3β (Gene DB ID Tb927.10.13780); 6X His (C); made in house; host or cells: BL21 (DE3) E. coli
assaySummary: biochemical
Assay type: biochemical
experimentalParameters: 10 μM ATP and 10 μM GSM; ± standard deviation, n = 3; read-out: IC50
measure: IC50
The reply should consist of the numeric value with the unit placed after it.

A selection of reference data follows.
Cc1cc(Nc2cc(CN3CCOCC3)c3nc(C)c(Cc4ccc(Cl)cc4F)n3n2)n[nH]1 :: 500 nM
Nc1cccc(-c2cc3c(Oc4cccc(O)c4)ncnc3[nH]2)c1 :: 600 nM

Proceeding to the next molecule to report its IC50.
-- ask What does the data say about its IC50? Entry: Cc1c[nH]c(-c2cnc(NCCNc3ccc(C#N)cn3)nc2-c2ccc(Cl)cc2Cl)n1
-- reply 200 nM
